target: GRID2IP_2, A4D2P6; experiment: holdup assay; design: key: below the threshold = too weak to quantify, mostly under pKd 3.1 to 4; conditions: plain residues with an end cap or a label only (N-terminal biotin on a linker: ahx)
Sequence (A4D2P6 272-370): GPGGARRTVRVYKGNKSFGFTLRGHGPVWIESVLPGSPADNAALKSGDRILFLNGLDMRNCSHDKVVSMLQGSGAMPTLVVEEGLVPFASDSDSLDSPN
Property: pKd

Reference set, count: 8
Binder: ADENEQVSAV [RAPGEF6, Q8TEU7]
Property: pKd
Readout Value: 4.19
//
Binder: VNENQKEYFF [CNTNAP4, Q9C0A0]
Property: pKd
Readout Value: below the threshold
//
Binder: KEYDDELTFF [USH1C, Q9Y6N9]
Property: pKd
Readout Value: below the threshold
//
Binder: PKMKLNETSF [SHKBP1, Q8TBC3]
Property: pKd
Readout Value: below the threshold
//
Binder: AKPQPVDSWV [ARVCF, O00192]
Property: pKd
Readout Value: below the threshold
//
Binder: YNSFLSVTTV [PDZRN3, Q9UPQ7]
Property: pKd
Readout Value: 3.57
//
Binder: SKKNELFSNL [NHERF1, O14745]
Property: pKd
Readout Value: below the threshold
//
Binder: KDECVIATEV [DLL1, O00548]
Property: pKd
Readout Value: 3.48

## Task Please give the measured pKd for this binder: HSATSVHTSV [MTMR1, Q13613]
## Result below the threshold

## Task What would you report for SAPATLSSRA [PDLIM2, Q96JY6] ?
## Result below the threshold
